Entry source: patent US20260193366A1

Biological target: T1, hIL-4Rα on cells (human, UniProt P24394 26-825)
T1 sequence: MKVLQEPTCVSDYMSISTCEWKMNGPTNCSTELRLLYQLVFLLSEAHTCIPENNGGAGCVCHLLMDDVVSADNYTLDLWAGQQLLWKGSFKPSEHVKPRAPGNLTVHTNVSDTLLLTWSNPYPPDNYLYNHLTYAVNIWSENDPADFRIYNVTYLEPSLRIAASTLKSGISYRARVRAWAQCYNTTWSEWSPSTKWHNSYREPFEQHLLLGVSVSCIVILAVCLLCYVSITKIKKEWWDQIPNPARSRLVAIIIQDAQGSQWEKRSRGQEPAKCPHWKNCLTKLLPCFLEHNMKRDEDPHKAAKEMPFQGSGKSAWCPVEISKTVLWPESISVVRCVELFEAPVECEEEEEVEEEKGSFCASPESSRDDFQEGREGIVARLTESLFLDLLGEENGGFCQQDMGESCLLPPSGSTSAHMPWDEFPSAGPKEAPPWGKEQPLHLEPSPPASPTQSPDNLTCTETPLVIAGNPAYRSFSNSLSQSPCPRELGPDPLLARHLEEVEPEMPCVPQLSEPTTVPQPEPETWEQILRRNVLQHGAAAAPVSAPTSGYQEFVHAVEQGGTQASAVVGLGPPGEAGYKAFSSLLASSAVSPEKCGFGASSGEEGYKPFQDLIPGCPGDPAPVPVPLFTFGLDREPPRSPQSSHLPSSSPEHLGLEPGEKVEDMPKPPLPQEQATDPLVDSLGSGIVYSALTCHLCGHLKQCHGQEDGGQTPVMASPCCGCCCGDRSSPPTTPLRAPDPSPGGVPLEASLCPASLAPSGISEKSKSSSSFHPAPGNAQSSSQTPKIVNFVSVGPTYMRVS
Assay: FACS on HEK293 cells, competitor biotin-hIL-13;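 also: stably transduced cells co-expressing both receptor chains, stained cold, with cell-bound signal read as mean fluorescence intensity by flow cytometry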
propertyMeasured: Relative Blockade of IL-13 Binding IC50

| binder | propertyMeasured | result |
| --- | --- | --- |
| Construct 26 (mAb434) (antibody, IgG4, V domains shown, VH/VL only) VH: EVQLVESGGGLEQPGGSLRLSCAGSGFTFRDFAMTWVRQAPGKGLEWVSSISGGGGSTYYADSVKGRFTISRDNSKNTLYLQMNSLRAEDTAVYYCAKDRLSIAVRPRYYGLDVWGQGTTVTVSS VL: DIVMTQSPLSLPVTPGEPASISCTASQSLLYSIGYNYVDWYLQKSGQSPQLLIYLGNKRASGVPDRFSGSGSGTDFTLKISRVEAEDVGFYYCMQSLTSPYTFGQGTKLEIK | Relative Blockade of IL-13 Binding IC50 | 0.486 relative to dupilumab |
